Data origin, for the record: paper PMC4336329

- study.system: human ether-à-go-go-related gene (hERG) potassium channel (human);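 further: peak tail current of the secondary pulse compared with the same well before compound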
- Sequence (Q12809 whole entry, looked up): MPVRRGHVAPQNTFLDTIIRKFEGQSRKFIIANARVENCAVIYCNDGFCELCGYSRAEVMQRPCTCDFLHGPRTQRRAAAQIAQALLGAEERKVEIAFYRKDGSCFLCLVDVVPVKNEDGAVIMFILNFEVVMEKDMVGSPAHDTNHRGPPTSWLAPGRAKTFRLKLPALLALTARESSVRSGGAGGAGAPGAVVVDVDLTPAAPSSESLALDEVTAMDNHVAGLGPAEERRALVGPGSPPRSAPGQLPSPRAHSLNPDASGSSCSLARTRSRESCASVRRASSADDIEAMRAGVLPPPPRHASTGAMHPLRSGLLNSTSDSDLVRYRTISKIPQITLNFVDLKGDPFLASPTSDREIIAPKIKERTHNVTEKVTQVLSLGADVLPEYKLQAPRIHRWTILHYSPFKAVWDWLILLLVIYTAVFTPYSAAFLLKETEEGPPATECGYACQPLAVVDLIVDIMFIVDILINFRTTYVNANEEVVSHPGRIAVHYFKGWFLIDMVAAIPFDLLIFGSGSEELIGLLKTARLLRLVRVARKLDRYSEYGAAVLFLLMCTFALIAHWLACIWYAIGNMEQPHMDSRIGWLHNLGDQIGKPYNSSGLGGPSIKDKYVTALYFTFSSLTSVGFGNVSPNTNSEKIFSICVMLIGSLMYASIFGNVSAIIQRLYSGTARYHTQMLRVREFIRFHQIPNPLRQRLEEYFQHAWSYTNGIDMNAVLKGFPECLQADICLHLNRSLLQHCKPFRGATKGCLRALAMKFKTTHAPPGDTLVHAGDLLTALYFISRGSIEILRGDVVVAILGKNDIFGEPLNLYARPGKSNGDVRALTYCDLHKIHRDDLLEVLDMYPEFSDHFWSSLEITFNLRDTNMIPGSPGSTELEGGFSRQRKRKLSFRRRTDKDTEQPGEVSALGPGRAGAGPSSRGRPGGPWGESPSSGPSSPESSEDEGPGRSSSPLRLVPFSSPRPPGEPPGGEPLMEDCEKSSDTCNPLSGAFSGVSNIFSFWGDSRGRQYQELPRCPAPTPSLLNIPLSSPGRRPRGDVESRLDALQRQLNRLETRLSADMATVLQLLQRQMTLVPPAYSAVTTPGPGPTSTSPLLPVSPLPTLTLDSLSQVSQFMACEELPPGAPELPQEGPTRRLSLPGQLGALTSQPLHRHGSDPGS
- run.description: primary screen, population patch clamp on CHO cells stably expressing hERG; higher = less effect of the substance
The whole screen tested about 310,000 compounds, of which about 14,000 (4.5%) showed an effect of 50% or more. Effects have a minus sign here. The list comes from a sample in which strong results are over-represented; it also holds close analogues and randomly drawn compounds.
# if value of hERG current change (%, negative = inhibition) at 10uM reaches -20%, tag Satisfied; if it stays below, tag Not satisfied

- CC(=O)Nc1ccccc1NC(=O)C/C(C)=N/NC(=O)Cc1cccc2ccccc12: Satisfied
- CCOc1ccc(/C=C/C(=O)N(C)CC(=O)Nc2cccc(F)c2)cc1OCC: Satisfied
- CCOc1ccc(NC(=O)CN(C)C(=O)CC(NC(=O)c2ccccc2)c2ccccc2)cc1OCC (stereo not drawn): Not satisfied
- CCOc1ccc(NC(=O)CN(C)C(=O)/C=C/c2ccco2)cc1OCC: Not satisfied
- O=C(Cc1c(F)cccc1Cl)Nc1ccccc1C(=O)N1CCOCC1: Satisfied
- CC(=O)c1ccc(N2CCN(C(=O)Nc3ccc(C(C)C)cc3)CC2)cc1: Not satisfied
- CCCCn1c(=N)n(CC(O)COc2ccccc2)c2ccccc21 (stereo not drawn): Not satisfied
- O=C(Nc1ccc2snnc2c1)N1CCN(c2ccccc2)CC1: Not satisfied
- Cc1ccc(OCCn2c(=O)cnc3ccccc32)cc1: Satisfied
- CNP(=O)(Oc1ccccc1)OC12CC3CC(CC(C3)C1)C2 (stereo not drawn): Satisfied

[Q] hey, is hERG current change (%, negative = inhibition) at 10uM for this one >= -20%? `O=C(OCC(=O)c1c[nH]c2ccccc12)c1cc2ccccc2cc1O`
[A] Satisfied

[Q] hey, is hERG current change (%, negative = inhibition) at 10uM for this one >= -20%? CCCCn1c(=N)n(CC(O)COc2ccc(C)cc2)c2ccccc21.Cl (stereo not drawn)
[A] Not satisfied

[Q] hey, is hERG current change (%, negative = inhibition) at 10uM for this one >= -20%? CCCOP(=O)(OCCC)C(Nc1ccc(C(C)C)cc1)c1ccc([N+](=O)[O-])cc1 (stereo not drawn)
[A] Satisfied

[Q] hey, is hERG current change (%, negative = inhibition) at 10uM for this one >= -20%? `CCOc1ccccc1NC(=O)c1ccc(Cl)c(NC(=O)CC(c2ccccc2)c2ccccc2)c1`
[A] Satisfied

[Q] hey, is hERG current change (%, negative = inhibition) at 10uM for this one >= -20%? `CC(=O)N1CCN(c2ccc(NC(=O)c3ccc(C)cc3)cc2)CC1`
[A] Satisfied

[Q] hey, is hERG current change (%, negative = inhibition) at 10uM for this one >= -20%? COc1cccc(NC(=O)CN(C)C(=O)CC(NC(=O)c2ccccc2Cl)c2ccccc2)c1 (stereo not drawn)
[A] Not satisfied

[Q] hey, is hERG current change (%, negative = inhibition) at 10uM for this one >= -20%? `Br.CCCCn1c(=N)n(CCOc2ccc(C)cc2)c2ccccc21`
[A] Not satisfied

[Q] hey, is hERG current change (%, negative = inhibition) at 10uM for this one >= -20%? `O=C(Cn1cnc2c(NC(=O)OCc3ccccc3)ncnc21)NCCN1CCOCC1`
[A] Satisfied

[Q] hey, is hERG current change (%, negative = inhibition) at 10uM for this one >= -20%? `O=C(Nc1ccc2snnc2c1)N1CCCCC1`
[A] Satisfied

[Q] hey, is hERG current change (%, negative = inhibition) at 10uM for this one >= -20%? `CCOc1ccccc1NC(=O)c1cccc(NC(=O)CC(c2ccccc2)c2ccccc2)c1`
[A] Not satisfied

[Q] hey, is hERG current change (%, negative = inhibition) at 10uM for this one >= -20%? Cc1ccc(OCC(O)Cn2c3ccccc3c3ccccc32)cc1 (stereo not drawn)
[A] Satisfied

[Q] hey, is hERG current change (%, negative = inhibition) at 10uM for this one >= -20%? `Cc1ccc(-n2nnnc2SCC(=O)Nc2ccccc2N2CCCCC2)cc1C`
[A] Satisfied
